conditions: in ethanol, 298.15 K
Measurement Label: solubility (mole fraction)

In: Entry under review: COC(=O)c1c(Cl)nn(C)c1S(=O)(=O)NC(=O)Nc1nc(OC)cc(OC)n1 . Reported solubility (mole fraction)?
Out: 6.48e-05

###

conditions: in water, 318.15 K
Measurement Label: solubility (mole fraction)
Answer using only a numeral; do not append any unit.

In: Entry under review: COC(=O)c1c(Cl)nn(C)c1S(=O)(=O)NC(=O)Nc1nc(OC)cc(OC)n1 . Reported solubility (mole fraction)?
Out: 4.44e-07

###

conditions: in isopropanol, 298.15 K
Measurement Label: solubility (mole fraction)
Answer using only a numeral; do not append any unit.

In: Entry under review: COC(=O)c1c(Cl)nn(C)c1S(=O)(=O)NC(=O)Nc1nc(OC)cc(OC)n1 . Reported solubility (mole fraction)?
Out: 4.51e-06
